Give IC50 for every item shown.
Target: HIS-TGFβR2 WT (Homo sapiens, UniProt P37173)
Sequence (P37173 23-567): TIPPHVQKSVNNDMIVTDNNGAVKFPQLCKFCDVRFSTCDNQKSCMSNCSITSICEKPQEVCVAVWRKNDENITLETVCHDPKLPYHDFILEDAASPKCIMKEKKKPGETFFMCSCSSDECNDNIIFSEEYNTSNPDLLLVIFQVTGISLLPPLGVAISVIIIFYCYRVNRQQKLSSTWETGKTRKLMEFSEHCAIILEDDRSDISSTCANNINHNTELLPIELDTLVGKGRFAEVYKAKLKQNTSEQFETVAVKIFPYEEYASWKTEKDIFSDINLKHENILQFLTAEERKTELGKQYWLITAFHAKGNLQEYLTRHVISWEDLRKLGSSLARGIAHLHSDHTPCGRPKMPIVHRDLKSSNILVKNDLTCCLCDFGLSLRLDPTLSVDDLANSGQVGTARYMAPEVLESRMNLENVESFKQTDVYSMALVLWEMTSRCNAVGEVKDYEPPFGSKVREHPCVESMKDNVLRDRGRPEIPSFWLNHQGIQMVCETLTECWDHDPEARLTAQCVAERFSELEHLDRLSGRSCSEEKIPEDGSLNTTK
Experiment summary: HTRF probe-displacement assay, HIS-TGFβR2 WT
Format: binding
One number for each entry, in µM.

Below, 5 compounds whose answers are already recorded.
[
  {
    "Structure": "CC(=O)Nc1cc(-c2[nH]c3c(CF)ccnc3c2-c2cccc(C(F)F)n2)ccn1",
    "Measurement kind": "IC50",
    "Recorded measurement": 6.08
  },
  {
    "Structure": "COc1cnc2c(-c3cccc(C)n3)c(-c3ccnc(NC(C)=O)c3)[nH]c2c1",
    "Measurement kind": "IC50",
    "Recorded measurement": 1.12
  },
  {
    "Structure": "COc1cnc2c(-c3cccc(C)n3)c(-c3ccnc(NC(=O)CN(C)C)c3)[nH]c2c1",
    "Measurement kind": "IC50",
    "Recorded measurement": 7.35
  },
  {
    "Structure": "O=C(CO)Nc1cc(-c2[nH]c3cc(Cl)cnc3c2-c2ccc(F)cn2)ccn1",
    "Measurement kind": "IC50",
    "Recorded measurement": 1.55
  },
  {
    "Structure": "COc1cnc2c(-c3cccc(C(F)F)n3)c(-c3ccnc(NC(=O)CN(C)C)c3)[nH]c2c1",
    "Measurement kind": "IC50",
    "Recorded measurement": 11.3
  }
]

Query string: Quick check: IC50 of COc1ccc(-c2c(-c3ccnc(NC(C)=O)c3)[nH]c3cc(C#N)cnc23)cn1 ?
Result string: 0.16

---

Target: UniProt:P37173
Experiment summary: HTRF probe-displacement assay, HIS-TGFβR2 WT
Type: binding
Give IC50 for every item shown.

[
  {
    "Compound": "CC(=O)Nc1cc(-c2[nH]c3cc(Cl)cnc3c2-c2ncccc2C)ccn1",
    "Measurement kind": "IC50",
    "Recorded measurement": "> 15 µM"
  },
  {
    "Compound": "COc1ccc(-c2c(-c3ccnc(NC(=O)CN4CCOCC4)c3)[nH]c3cc(Cl)cnc23)nc1",
    "Measurement kind": "IC50",
    "Recorded measurement": "> 15 µM"
  },
  {
    "Compound": "CC(=O)Nc1cc(-c2[nH]c3cc(Cl)cnc3c2-c2cccc(OC(C)C)n2)ccn1",
    "Measurement kind": "IC50",
    "Recorded measurement": "> 15 µM"
  },
  {
    "Compound": "CC(=O)Nc1cc(-c2[nH]c3cccnc3c2-c2ccnc(C#N)c2)ccn1",
    "Measurement kind": "IC50",
    "Recorded measurement": "7.56 µM"
  },
  {
    "Compound": "COc1ccc(-c2c(-c3ccnc(NC(C)=O)c3)[nH]c3cc(F)cnc23)cn1",
    "Measurement kind": "IC50",
    "Recorded measurement": "0.067 µM"
  }
]

Hey, quick one: what's IC50 for each of these?
1. COc1ccc(-c2c(-c3ccnc(NC(C)=O)c3)n(C)c3cccnc23)cn1
2. CC(=O)Nc1cc(-c2[nH]c3cccnc3c2-c2cc(C)cc(Cl)n2)ccn1
3. COCCOc1cnc2c(-c3ccc(OC)cn3)c(-c3ccnc(NC(C)=O)c3)[nH]c2c1
4. CC(=O)Nc1cc(-c2[nH]c3cccnc3c2-c2ccc3ncccc3c2)ccn1
5. COc1ccc(-c2c(-c3ccnc(NC(C)=O)c3)[nH]c3cc(N4CCC(NC(C)=O)CC4)cnc23)nc1

Result string:
1. 3.61 µM
2. 0.49 µM
3. > 15 µM
4. > 15 µM
5. > 15 µM

Hey, quick one: what's IC50 for each of these?
1. CC(=O)Nc1cc(-c2[nH]c3c(C(C)O)ccnc3c2-c2ccc(Cl)nc2)ccn1 (centres unmarked)
2. CC(=O)Nc1cc(-c2[nH]c3cc(Cl)cnc3c2-c2cccc(Cl)n2)ccn1
3. CC(=O)Nc1cc(-c2[nH]c3c(C(C)F)ccnc3c2-c2cccc(C(F)F)n2)ccn1 (centres unmarked)
4. CC(=O)Nc1cc(-c2[nH]c3c(N4CCCC4)ccnc3c2-c2cccc(C(F)F)n2)ccn1

Result string:
["0.681 µM", "0.13 µM", "4.06 µM", "> 15 µM"]

Hey, quick one: what's IC50 for each of these?
1. CC(=O)Nc1cc(-c2[nH]c3c(CO)ccnc3c2-c2cccc(Cl)n2)ccn1
2. COc1cnc2c(-c3nc(C)cs3)c(-c3ccnc(NC(C)=O)c3)[nH]c2c1
3. COc1ccc(-c2c(-c3ccnc(NC(C)=O)c3)[nH]c3cc(S(C)(=O)=O)cnc23)nc1

Result string:
1. 0.503 µM
2. 0.044 µM
3. > 15 µM

---

Target: HIS-TGFβR1 T204D (Homo sapiens, UniProt P36897, T204D)
Sequence (P36897 34-503 T204D): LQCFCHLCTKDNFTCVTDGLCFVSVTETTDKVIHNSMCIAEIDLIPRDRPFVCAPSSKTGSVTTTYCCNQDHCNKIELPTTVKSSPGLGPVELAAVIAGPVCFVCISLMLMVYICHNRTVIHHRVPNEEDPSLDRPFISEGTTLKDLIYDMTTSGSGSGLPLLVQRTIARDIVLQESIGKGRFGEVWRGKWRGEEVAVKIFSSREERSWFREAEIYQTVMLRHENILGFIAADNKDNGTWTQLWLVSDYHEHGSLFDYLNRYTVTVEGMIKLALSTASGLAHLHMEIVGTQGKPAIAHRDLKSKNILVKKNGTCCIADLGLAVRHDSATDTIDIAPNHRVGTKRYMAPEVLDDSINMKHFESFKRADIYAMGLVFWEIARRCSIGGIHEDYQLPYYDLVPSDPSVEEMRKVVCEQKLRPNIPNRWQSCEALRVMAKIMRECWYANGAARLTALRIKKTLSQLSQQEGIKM
Experiment summary: HTRF probe-displacement assay, HIS-TGFβR1 T204D
Type: binding
Reported conditions: read-out: TGFβR1 (μM) IC50
Give IC50 for every item shown.
Numbers only, in µM.

Below, 5 molecules whose answers are already recorded.
[
  {
    "Structure": "CC(=O)Nc1cc(-c2[nH]c3c(CO)ccnc3c2-c2cccc(C(F)F)n2)ccn1",
    "IC50, µM": 0.001
  },
  {
    "Structure": "CNC(=O)c1cc(Cl)nc2c(-c3ccc(OC)nc3)c(-c3ccnc(NC(C)=O)c3)[nH]c12",
    "IC50, µM": 0.017
  },
  {
    "Structure": "CC(=O)Nc1cc(-c2[nH]c3cccnc3c2-c2ccn[nH]2)ccn1",
    "IC50, µM": 0.0939
  },
  {
    "Structure": "CC(=O)Nc1cc(-c2[nH]c3cccnc3c2-c2ncc(C)s2)ccn1",
    "IC50, µM": 0.0015
  },
  {
    "Structure": "COc1cnc2c(-c3ccc(Cl)cn3)c(-c3ccnc(NC(C)=O)c3)[nH]c2c1",
    "IC50, µM": 0.003
  }
]

Hey, quick one: what's IC50 for each of these?
1. COc1ccc(-c2c(-c3ccnc(NC(C)=O)c3)[nH]c3c(CO)ccnc23)cn1
2. CC(=O)Nc1cc(-c2[nH]c3cccnc3c2-c2cnn(C)c2)ccn1
3. CC(=O)Nc1cc(-c2[nH]c3cccnc3c2-c2cnc(F)c(F)c2)ccn1
4. CCN1CCN(CC(=O)Nc2cc(-c3[nH]c4cc(Cl)cnc4c3-c3ccc(OC)nc3)ccn2)CC1
5. COc1ccc(-c2c(-c3ccnc(NC(C)=O)c3)[nH]c3cc(N4CCCC4)cnc23)nc1
6. CC(=O)Nc1cc(-c2[nH]c3cc(C)cnc3c2-c2nc(C)cs2)ccn1
7. COC(=O)Nc1cc(-c2[nH]c3cc(OC)cnc3c2-c2ccc(OC)cn2)ccn1

Result string:
[0.001, 0.0587, 0.057, 0.001, 0.0171, 0.0008, 0.001]

---

Target: HIS-TGFβR1 T204D (Homo sapiens, UniProt P36897, T204D)
Experiment summary: HTRF probe-displacement assay, HIS-TGFβR1 T204D
Format: binding
Reported conditions: read-out: TGFβR1 (μM) IC50
Give log10 IC50 for every item shown.
Note: values are log10 of IC50 expressed in µM.

[
  {
    "Compound": "COc1ccc(-c2c(-c3ccnc(NC(=O)CN4CCOCC4)c3)[nH]c3cccnc23)cn1",
    "log10 IC50": -3.00
  },
  {
    "Compound": "COc1ccnc2c(-c3cccc(C)n3)c(-c3ccnc(NC(C)=O)c3)[nH]c12",
    "log10 IC50": -2.52
  },
  {
    "Compound": "COc1ccc(-c2c(-c3ccnc(NC(C)=O)c3)[nH]c3cc(F)cnc23)cn1",
    "log10 IC50": -2.30
  },
  {
    "Compound": "COc1ccnc2c(-c3nc(C)cs3)c(-c3ccnc(NC(C)=O)c3)[nH]c12",
    "log10 IC50": -2.80
  },
  {
    "Compound": "COc1ccc(-c2c(-c3ccnc(NC(C)=O)c3)[nH]c3cc(N4CC[C@H](O)[C@@H](O)C4)cnc23)nc1",
    "log10 IC50": -1.88
  }
]

Hey, quick one: what's log10 IC50 for each of these?
1. COCCOc1cnc2c(-c3ccc(OC)cn3)c(-c3ccnc(NC(C)=O)c3)[nH]c2c1
2. COc1ccc(-c2c(-c3ccnc(NC(C)=O)c3)[nH]c3cc(N4CCC(OC)CC4)cnc23)nc1
3. CC(=O)Nc1cc(-c2[nH]c3cccnc3c2-c2csc(C)n2)ccn1
4. CC(=O)Nc1cc(-c2[nH]c3cccnc3c2-c2nccc(C)n2)ccn1
5. CC(=O)Nc1cc(-c2[nH]c3c(C(C)C)ccnc3c2-c2cccc(C(F)F)n2)ccn1
6. COc1ccc(-c2c(-c3ccnc(N)c3)[nH]c3cc(Cl)cnc23)cn1

Result string:
1. -2.70
2. -1.79
3. -2.31
4. -2.32
5. -3.00
6. -2.70
